- Tested on: Rattus norvegicus
- Assay details: Dose producing 30% decrease in blood pressure of anesthetized spontaneously hypertensive rats (SHR's)
- Type: functional
Measured property: ED30 (µg/kg)
Report the figure in µg/kg without appending any unit label.

Query CCCCCCC#Cc1nc(N)c2ncn([C@@H]3O[C@H](CO)[C@@H](O)[C@H]3O)c2n1 yields ED30 of 0.35

Recorded ED30 (molecule CCCCC#Cc1nc(N)c2ncn(C3O[C@H](C(=O)NC)[C@@H](O)[C@H]3O)c2n1 (stereo partly drawn) ): 0.51

Quick note, ED30 for COc1cc(OC)cc(C(CNc2ncnc3c2ncn3[C@@H]2O[C@H](CO)[C@@H](O)[C@H]2O)c2ccccc2C)c1 (stereo partly drawn) landed at 12.3

// ED30 value for Nc1nc(Nc2ccccc2)nc2c1ncn2[C@@H]1O[C@H](CO)[C@@H](O)[C@H]1O : 6.1

ED30 reading for CC(=O)O[C@]1(C(C)=O)CC[C@H]2[C@@H]3C=C(Cl)C4=CC(=O)[C@@H]5C[C@@H]5[C@]4(C)[C@H]3CC[C@@]21C [CYPROTERONE ACETATE] : 0.53

For reference, reported ED30 for CCCCC#Cc1nc(N)c2ncn(C3O[C@H](C(=O)NCCC)[C@@H](O)[C@H]3O)c2n1 (stereo partly drawn) stands at 2.88

* * *

- Study system: UniProtKB P25099
- Sequence (P25099 whole entry): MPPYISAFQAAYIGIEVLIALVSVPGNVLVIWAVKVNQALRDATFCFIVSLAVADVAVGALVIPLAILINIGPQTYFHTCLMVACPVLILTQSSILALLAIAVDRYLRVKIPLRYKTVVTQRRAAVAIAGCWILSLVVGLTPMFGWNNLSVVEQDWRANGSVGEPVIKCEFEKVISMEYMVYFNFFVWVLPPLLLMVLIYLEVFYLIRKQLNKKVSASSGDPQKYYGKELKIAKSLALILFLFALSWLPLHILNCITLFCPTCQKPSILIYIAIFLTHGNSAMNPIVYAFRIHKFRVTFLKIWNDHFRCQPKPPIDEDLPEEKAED
# note: exactly 100 nM is not below, so it is NO; use YES for Ki strictly under it

Lab note: Ki threshold 100 nM. Does this molecule come in strictly under it? COc1cc(OC)cc(C(CNc2ncnc3c2ncn3[C@@H]2O[C@H](CO)[C@@H](O)[C@H]2O)c2ccccc2C)c1 (stereo partly specified)
YES

Strictly below 100 nM: is that where Ki of CCCCC#Cc1nc(N)c2ncn([C@@H]3O[C@H](C(=O)NCC)[C@@H](O)[C@H]3O)c2n1 sits?
NO

Lab note: Ki threshold 100 nM. Does this molecule come in strictly under it? CCCCC#Cc1nc(N)c2ncn([C@@H]3O[C@H](C(N)=O)[C@@H](O)[C@H]3O)c2n1
NO

Lab note: confirm whether the reported Ki for this molecule is below 100 nM, equality not counting. molecule: CCCCC#Cc1nc(N)c2ncn(C3O[C@H](CNC=O)[C@@H](O)[C@H]3O)c2n1 (stereo partly specified)
NO

Threshold test, Ki < 100 nM: CCCCC#Cc1nc(N)c2ncn([C@@H]3O[C@H](C(=O)NC4CC4)[C@@H](O)[C@H]3O)c2n1
NO

* * *

- Tested on: Rattus norvegicus
- Assay details: Dose producing 30% decrease in blood pressure of anesthetized spontaneously hypertensive rats (SHR's)
- Format: functional
I'd appreciate it if you could supply log10 of ED30 values for the items below.
Hi team, quick reminder: these entries are log10 of ED30 (µg/kg).

# log10 of ED30 of CCCCC#Cc1nc(N)c2ncn([C@@H]3O[C@H](CO)[C@@H](O)[C@H]3O)c2n1 = -0.96

Reported log10 of ED30 of CCNC(=O)[C@H]1O[C@@H](n2cnc3c(N)ncnc32)[C@H](O)[C@@H]1O [NECA] : -0.64

Reported log10 of ED30 of CCCCC#Cc1nc(N)c2ncn([C@@H]3O[C@H](C(=O)NCCCC)[C@@H](O)[C@H]3O)c2n1 : 1.42

Measured log10 of ED30, CCCCC#Cc1nc(N)c2ncn([C@@H]3O[C@H](C(=O)NCC)[C@@H](O)[C@H]3O)c2n1 : -0.52

The measured log10 of ED30 associated with CCCCC#Cc1nc(N)c2ncn([C@@H]3O[C@H](C(=O)NC4CC4)[C@@H](O)[C@H]3O)c2n1 reads -0.77

Documented log10 of ED30 of CCNC(=O)[C@H]1O[C@@H](n2cnc3c(N)nc(NCCc4ccc(CCC(=O)O)cc4)nc32)[C@H](O)[C@@H]1O [CGS-21680] : -0.08
